- Assay Protocol: yeast display, Sf9 membrane polyspecificity reagent, FACS + sequencing; frameworks hold sequencing errors
Value Kind: polyreactivity (PSR sort gate)

Worked examples follow.
| Primary Sequence | Value Kind | Measurement |
| --- | --- | --- |
| QVQLVESGGGLVQAGGSLRLSCAASGSTFRYYTMGWYRQAPGKEREFVASISRSGGSTYYADSVKGRFTISRDNAKNTVYLQMNSLKPEDTAVYYCNAVKGSYSRSQGNEYWGQGTQVTVSS | polyreactivity (PSR sort gate) | high polyreactivity |
| QVQLVESGGGLVQAGGSLRLSCAASGSTFRYYAMGWYRQAPGKERELVAAISARGTSTYYADSVKGRFTISRDNAKNTVYLQMNSLKPEDTAVYYCNDYLHATEYDYWGQGTQVTVSS | polyreactivity (PSR sort gate) | high polyreactivity |
| QVQLVESGGGLVQAGGSLRLSCAASGSIFSYYAMGWYRQAPGKERELVAAISKRGASTYYADSVKGRFTISRDNAKNTVYLQMNSLKPEDTAVYYCAAYRQGSAYDYWGQGTQVTVSS | polyreactivity (PSR sort gate) | high polyreactivity |
| QVQLVESGGGLVQAGGSLRLSCAASGRTFYLNAMGWYRQAPGKERELVAAISRNGGSTYYADSVKGRFTISRDNAKNTVYLQMNSLKPEDTAVYYCNKNWLGWADPSLDKRYDYWGQGTQVTVSS | polyreactivity (PSR sort gate) | high polyreactivity |
| QVQLVESGGGLVQAGGSLRLSCAASGRIFRYNAMGWYRQAPGKERELVASITSGGSTKYADSVKGRFTISRDNAKNTVYLQMNSLKPEDTAVYYCAAQRATPWPKNDYWGQGTQVTVSS | polyreactivity (PSR sort gate) | high polyreactivity |

Challenge: // returns reported polyreactivity (PSR sort gate) for input `QVQLVESGGGLVQAGGSLRLSCAASGFIFRDNAMGWYRQAHGKERELVASIRSSGGRTYYADSVKGRFTISRDNAKNTVYLQMNSLKPEDTAVYYCARRWYPVTPYARMYYWGQGTQVTVSS`
Response given: low polyreactivity

Challenge: Return reported polyreactivity (PSR sort gate); argument: `QVQLVESGGGLVQARGSLRLSCAASGIIFAFYAMGWYRQPPGKERELVAGITSGGDTYYADSVKGRFTISRDNAKKTVYLQMNRLKPEDTAVYYCAAVVQYPYRAGWRYWYATNFDYWGQGTQVTVSS`
Response given: high polyreactivity

###

- Assay Protocol: yeast display, Sf9 membrane polyspecificity reagent, FACS + sequencing; frameworks hold sequencing errors
Value Kind: polyreactivity (PSR sort gate)

| Primary Sequence | polyreactivity (PSR sort gate) |
| --- | --- |
| QVQLVESGGGLVQAGGSLRLSCAASGSTLRRYAMGWYRQAPGKERELVAAITYRSGSTYYADSVKGRFTISRDNAKNTVYLQMNSLKPEDTAVYYCAKVGYVSKYWFAGDYWGQGTQVTVSS | high polyreactivity |
| QVQLVESGGGLVQAGGSLRLSSAASGITFNLNDMGWSRQAPGKERELVAAITSGGNTSYADSVKGRFTISRDNAKNTVYLQMNSLKPEDTAVYYCPTEDFRTDTGMYYWGQGTQVTVSS | low polyreactivity |
| QVQLVESGGGLVQAGGSLRLSCAASGRTFPFYAMGWYRQAPGKERELVADITSSGGSTYYADSVKGRFTISRDNAKNTVYLQMNSLKPEDTAVYFCNSFRGAQGSDAYDWGQGTQVTVSS | low polyreactivity |
| QVQLVESGGGLVQAGGSLRLSCAASGFTFHYYAMGWYRPAPGKERELVAAISRGGGNTYYADSVKGRFTISRDNAKNTVYLQMNSLKPEDTAVYYCAADSKYRFSHGLDYWGQGTQVTVSS | high polyreactivity |

Challenge: Could you share which polyreactivity (PSR sort gate) value was measured for `QVQLVESGGGLVQAGGSLRLSCAASGRIFYSNAMGWYRQAPGKERELVAGINYRDGSTYYADSVKGRFTISRDNAKKTVYLQMNSLKPEDTAVYYCAKRRQSYPYKTSTWYSHYSWGQGTQVTVSS` ?
Response given: high polyreactivity

Challenge: Returns the measured polyreactivity (PSR sort gate) for the input sequence. Input: `QVQLVESGGGLVQAGVSLRISCAASGFTFSRNAMGWYRQAPGKESELVAAITWSGGRSYYADSVKGRFTISGDNAKNPVYLQMNSLKPEDTAVYYCAARKYPLRSAYDYWGPGTQVTVSS`
Response given: low polyreactivity

Challenge: Which polyreactivity (PSR sort gate) is reported for this sequence? `QVQLVESGVGLVQAGGSLRLTCAASGITFLYNAMGSYRQAPGKERELVAVITRGGITNYADSVKGRFTISRDNAKNTDSLQMYRLNPEDTAVYDWAAYRGIYSRYDYWGQGTQVNVSS`
Response given: high polyreactivity

Challenge: For `QVQLVESGGGLVQAGGSLRLSCAASGPIFWGYAMGWYRQAPGKERELVAAITSGGNTNYADSVKGRFTISRDNAKNTVYLQMISLKPEDTAVSYCAKRTRPWRDFDYWGQGTQVTVSS` , what is its reported polyreactivity (PSR sort gate)?
Response given: low polyreactivity

Challenge: Bench note: what polyreactivity (PSR sort gate) did `QVQLVESGGGLVQAGGSLRLSCAASGIIFLSYAMGWYRQAPGKERELVATITRSGGSTYYADSVEGRFTISRDNAKNTVYLQMNSLKPEDTAVYYCARYWRTSGVRMDYWGQGTQVTVSS` show?
Response given: high polyreactivity

Challenge: Given `QVQLVESGGGLVQAGGSLRLSCAASGSTFVINAMGWYRQAPGKERELVAAISYSGDSTYADSVKGRFTISRDNEKNTVYLQMNSLKPEDTAVYYCAKYQYDYYTYDYWGQGTQVTVSS` , state its recorded polyreactivity (PSR sort gate).
Response given: low polyreactivity

Challenge: Endpoint output: polyreactivity (PSR sort gate) of `QVQLVESGGGLVQAGGSLRLSCAASGIIFERNAMGWYRQAPGKERELVAAITTSGDSTYYADSVKGRFTISRDNAKNTVYLQMNSLKPEDTAVYYCAVEGVIWSFWPYEYWGQGTQVTVSS` . Value?
Response given: high polyreactivity

###

- Assay Protocol: yeast display, Sf9 membrane polyspecificity reagent, FACS + sequencing; frameworks hold sequencing errors
Value Kind: polyreactivity (PSR sort gate)

| Primary Sequence | Measurement |
| --- | --- |
| QVQLVESGGGLVQAGGSLRLSCAASGGTFYTNVMGGYTQAPGKERELVAAITRSGGSTHYADSVKGRFTISRDNAKNTFYLQMNSLKPEDTEVYYCALGSPYYDGMDYWGQGTQVTVSS | low polyreactivity |
| QVHHVESAGRLVQAGGILRLICPASGFTFGHYVMGWYRQEPGKERELLAAITLSGGGTYYADSVKGRFTISRDNAKNTGYLQMNSLKPQDTAVYYCAAVGGDHAKITYSRYKVDYWGQGTQVTVSS | low polyreactivity |
| QVQLQESGGGLVQAGGSLRLSCAASGSISGPHVMGWYRQAPGKEREFVAAINVGANTYYADNVKGRFTISRDNANNTVYLQMNSLKPEDTAVYYCAAVYYGDIGHEYWGQGTQVTVSC | low polyreactivity |
| QVQLVESGGGLVQAGGSLSLSCDASGSTFYYNAMGWYRQAPGKERELVAAITFTGGSTYADSVKGRFTISRDNAKNTVYLQMNSLKPEDTAVYYCSATIQGHDYLGTGYDYWGQGTQVTVSS | low polyreactivity |
| QVQLVESGGGLVQAGGSLRLSCAASGSTFQFNVMGWYRQAPGKERELVAAITSGASTYYADSVKGRFTISRDNAKNTVYLQMNSLEPVDTAVYYWAVDYSFRYDYVQRYYYWGQGTQVTVSS | high polyreactivity |
| QVQLVESGGGLVQAGGSLRLSCAASGSTFPLYAMGWYRQAPGKERDLVAAITSGGGNTYYADSVKGRFTISRDNAKITVYLQMNSLKPEDTAVYSCAAVGGYKSYYSYEYDYWGQGTQVTVSS | low polyreactivity |
| QVQLVESGGGLVQAGGSLRLSCAASGRTFQVNSMGWYRQAPGKERELVAALTKRGGSTSYADSVKGRFTFSRDNANNTFYLQMNSLIPEDTAVYYCNVDYWGQGTQVTLSS | low polyreactivity |
| QVQLVESGGGLVQAGGSLRLSCAASGLIFPIYAMGWYRPAPGKERELVAVITWSGGSTYYADSVKGRFTISRDNAKNTVYLQMNSLKPEDTAVYYCSVEWAYPYWYTYYLEDYWGQGTQVTVSS | low polyreactivity |

Challenge: Give its polyreactivity (PSR sort gate) value. Item: `QVQLVESGGGLVQAGGSLRLSCAASGSTFNANAMGWYRQAPGKERELVAGISSGGSTYADSVKGRFTISRDNAKNTVYLQMNSLKPEDSAVYYCNADYYSWYPTFYWYDYWGQGSQVTVSS`
Response given: high polyreactivity

Challenge: Recorded polyreactivity (PSR sort gate) of `QVQLVESGGGLVQAGGSLRLSCAASGITFEGYSMGWYRQAPGKERELVAAIRSSGTSTYYADSVKGRFTISRDNAKNTVYLQMNSLKPEDTAVYYCNRARSSSRYDYWGQGTQVTVSS` , please.
Response given: low polyreactivity

Challenge: Record request: polyreactivity (PSR sort gate) value, item `QVQLVESGGGLFQAGGSLRLSCAASGSIFSKYAMAWYRQAPGKERELVAAITLNGGSTYYADSVKGRFTISRDNAKNTVYLQMNSLNPEDTAVYYCAKSDRPWWGYYYQFDYWGQGTQVTVSS`
Response given: low polyreactivity
